- System: 521955-158-R2-J5-PDC complex spheroids, viability
- TEST NAME: Anticancer human tumor 521955-158-R2-J5-PDC patient-derived pancreatic carcinoma cell line growth inhibition [RAS]; active = viability on the fitted dose curve at most 10% of control; inactive = the rest
- MEASUREMENT CONDITIONS: second compound 10 µM; first compound 0.316 µM
Mark one answer only. Choices: active, inactive

Recorded results for 4 compounds are shown here.
Nc1ccn(C2OC(CO)C(O)C2(F)F)c(=O)n1 (stereo not given) + C#Cc1c(F)ccc2cc(O)cc(-c3ncc4c(N5CC6CCC(C5)N6)nc(OCC56CCCN5CC(F)C6)nc4c3F)c12 :: inactive
CC(C)NCC(C(=O)N1CCN(c2ncnc3c2C(C)CC3O)CC1)c1ccc(Cl)cc1 (stereo not given) + C#Cc1c(F)ccc2cc(O)cc(-c3ncc4c(N5CC6CCC(C5)N6)nc(OCC56CCCN5CC(F)C6)nc4c3F)c12 :: inactive
C[C@@H](NC(=O)c1ncnc(N)c1Cl)c1ncc(C(=O)Nc2cc(C(F)(F)F)c(Cl)cn2)s1 + C#Cc1c(F)ccc2cc(O)cc(-c3ncc4c(N5CC6CCC(C5)N6)nc(OCC56CCCN5CC(F)C6)nc4c3F)c12 :: inactive
O=C(c1ccc(F)c(F)c1Nc1ccc(I)cc1F)N1CC(O)([C@@H]2CCCCN2)C1 + C#Cc1c(F)ccc2cc(O)cc(-c3ncc4c(N5CC6CCC(C5)N6)nc(OCC56CCCN5CC(F)C6)nc4c3F)c12 :: active

From here, focus on the item given below.
Which outcome did this test record for the compound CC1(O)CCCC1n1c(=O)c(C(F)F)cc2cnc(NC3CCN(S(C)(=O)=O)CC3)nc21 (stereo not given) + C#Cc1c(F)ccc2cc(O)cc(-c3ncc4c(N5CC6CCC(C5)N6)nc(OCC56CCCN5CC(F)C6)nc4c3F)c12 ? inactive

###

- Tested on: 521955-158-R2-J5-PDC complex spheroids, viability
- TEST NAME: Anticancer human tumor 521955-158-R2-J5-PDC cell line growth inhibition [RAS];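 note: spheroids also contain HUVEC endothelial cells and mesenchymal stem cells as stroma; compound exposure lasted seven days before the viability read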
- MEASUREMENT CONDITIONS: second compound 0.003 µM; first compound 0.01 µM; active compounds read low
MEASUREMENT NAME: viability, T/C (%)
Numbers only, in %.

Worked examples follow.
CC(C)n1nc(-c2ccc3oc(N)nc3c2)c2c(N)ncnc21 + CCn1c(-c2cccnc2C(C)OC)c2c3cc(ccc31)N1CCOC(CC(NC(=O)C(C(C)C)N(C)C(=O)C3(F)CCN(C(=O)C#CC(C)(C)N(C)C)CC3)C(=O)N3CCCC(N3)C(=O)OCC(C)(C)C2)C1 :: 64.8
Nc1ccn(C2OC(CO)C(O)C2(F)F)c(=O)n1 (stereo unspecified) + CCn1c(-c2cc(N3CCN(C)CC3)cnc2C(C)OC)c2c3cc(ccc31)-c1csc(n1)CC(NC(=O)C1CC1C)C(=O)N1CCCC(N1)C(=O)OCC(C)(C)C2 :: 33.4
Nc1ccn(C2OC(CO)C(O)C2(F)F)c(=O)n1 (stereo unspecified) + CCn1c(-c2cccnc2C(C)OC)c2c3cc(ccc31)N1CCOC(CC(NC(=O)C(C(C)C)N(C)C(=O)C3(F)CCN(C(=O)C#CC(C)(C)N(C)C)CC3)C(=O)N3CCCC(N3)C(=O)OCC(C)(C)C2)C1 :: 90.3
CC(C)n1nc(-c2ccc3oc(N)nc3c2)c2c(N)ncnc21 + CCn1c(-c2cc(N3CCN(C)CC3)cnc2C(C)OC)c2c3cc(ccc31)-c1csc(n1)CC(NC(=O)C1CC1C)C(=O)N1CCCC(N1)C(=O)OCC(C)(C)C2 :: 22.6
C=CC(=O)N1CCN(c2nc(OCC3CCCN3C)nc3c(F)c(-c4nc(N)cc(C)c4C(F)(F)F)c(Cl)cc23)C(C)C1 (stereo unspecified) + CCn1c(-c2cccnc2C(C)OC)c2c3cc(ccc31)N1CCOC(CC(NC(=O)C(C(C)C)N(C)C(=O)C3(F)CCN(C(=O)C#CC(C)(C)N(C)C)CC3)C(=O)N3CCCC(N3)C(=O)OCC(C)(C)C2)C1 :: 88.3

Could you now consider this next molecule?
Please look at this molecule and report its viability, T/C: O=C(c1ccc(F)c(F)c1Nc1ccc(I)cc1F)N1CC(O)([C@@H]2CCCCN2)C1 + CCn1c(-c2cc(N3CCN(C)CC3)cnc2C(C)OC)c2c3cc(ccc31)-c1csc(n1)CC(NC(=O)C1CC1C)C(=O)N1CCCC(N1)C(=O)OCC(C)(C)C2 46.7
